- ASSAY OVERVIEW: Evaluation of solubility in solvent
- Assay type: physicochemical
- RECORDED CONDITIONS: γ-butyrolactone, room temperature (25° C.), highest concentration completely dissolved
READOUT LABEL: Solubility Solvent-3 (wt %)
Answer in wt %, number only, no unit symbol.

The cases that follow already have their Solubility Solvent-3 on record.
| COMPOUND | READOUT LABEL | READOUT UNIT | RECORDED MEASUREMENT |
| --- | --- | --- | --- |
| CC(C)(C)c1cccc([S+](c2ccc3sc4ccccc4c(=O)c3c2)c2ccc(Sc3ccc4sc5ccccc5c(=O)c4c3)cc2C(C)(C)C)c1 (stereo not drawn) [Example 23] | Solubility Solvent-3 | wt % | 25 |
| Cc1ccc(C)c([S+](c2ccc3sc4ccccc4c(=O)c3c2)c2cc(C)c(Sc3ccc4sc5ccccc5c(=O)c4c3)cc2C)c1 (stereo not drawn) [Example 39] | Solubility Solvent-3 | wt % | 29 |

Now, please, on to the next compound.
**Query** Name the recorded Solubility Solvent-3 of the compound listed here: Cc1cc([S+](c2ccc3sc4ccccc4c(=O)c3c2)c2cc(C(C)(C)C)ccc2C)c(C(C)(C)C)cc1Sc1ccc2sc3ccccc3c(=O)c2c1 (stereo not drawn) [Example 46]
**Result** 49
